Cited source: patent US6034097A

# Measurement target: κ receptor (Rattus norvegicus)
# Construct: from tissue
# Assay method text: Radioligand binding assay, κ receptor (Table 1)
# Measurement setup: binding inhibition constant; listed as #3A
Readout: Ki (nM)
Write the number in nM without appending the unit.

Param item = Cc1cc(O)cc(C)c1CC(NC(=N)N)C(=O)N1Cc2ccccc2C[C@H]1C(=O)NC[C@H](O)Cc1ccccc1.O=C(O)C(F)(F)F.O=C(O)C(F)(F)F (stereo partly shown) ; retrieve measured Ki.
952

* * *

# Measurement target: μ receptors (Rattus norvegicus)
# Construct: the brains minus cerebellum were removed and place in ice-cold saline solution and then homogenized; from tissue; host or cells: rat brain minus cerebellum, membrane homogenate
# Sequence (P33535 whole entry): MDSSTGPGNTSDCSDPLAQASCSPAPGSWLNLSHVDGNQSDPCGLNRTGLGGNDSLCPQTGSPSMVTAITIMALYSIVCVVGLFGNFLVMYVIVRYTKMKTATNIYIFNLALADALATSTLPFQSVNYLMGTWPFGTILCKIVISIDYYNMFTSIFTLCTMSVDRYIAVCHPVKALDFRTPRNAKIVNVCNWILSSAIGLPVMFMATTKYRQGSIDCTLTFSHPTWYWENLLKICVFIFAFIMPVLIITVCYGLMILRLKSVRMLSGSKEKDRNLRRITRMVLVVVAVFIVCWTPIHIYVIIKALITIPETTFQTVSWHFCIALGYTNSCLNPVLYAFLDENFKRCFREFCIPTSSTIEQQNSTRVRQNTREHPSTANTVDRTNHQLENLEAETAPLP
# Assay method text: Radioligand binding assay, μ receptor, (3H)-DAMGO, rat brain membranes
# Measurement setup: Ki from IC50 by Cheng and Prusoff, listed as #3B
Readout: Ki

Param item = Cc1cc(O)cc(C)c1CC(NC(=N)N)C(=O)N1Cc2ccccc2C[C@H]1C(=O)NC[C@H](O)Cc1ccccc1 (stereo partly shown) ; retrieve measured Ki.
500 pM

* * *

The reader will find reported pKi values listed item by item below.
# Measurement target: μ receptors (Rattus norvegicus)
# Construct: the brains minus cerebellum were removed and place in ice-cold saline solution and then homogenized; from tissue; host or cells: rat brain minus cerebellum, membrane homogenate
# Assay method text: Radioligand binding assay, μ receptor, (3H)-DAMGO, rat brain membranes
# Measurement setup: Ki from IC50 by Cheng and Prusoff
To interpret pKi, take it as minus log10 of a concentration measured in moles per litre.

Compound	pKi
Cc1cc(O)cc(C)c1CC(N)C(=O)N1Cc2ccccc2C[C@H]1C(=O)NCCCc1ccccc1.O=C(O)C(F)(F)F (some centres unmarked)	9.96

Param item = Cc1cc(O)cc(C)c1C[C@H](N)C(=O)N1Cc2ccccc2C[C@H]1C(=O)NCC(O)Cc1ccccc1.O=C(O)C(F)(F)F (some centres unmarked) ; retrieve measured pKi.
9.15

* * *

# Assay method text: In vitro stability in rat whole blood (RWB) at 37° C.
# Assay type: in vitro ADME
# Method: In vitro stability of the compounds of the invention in rat whole blood (RWB) at 37° C. and in kidney brush border protease (KBBP) at 37° C. The compound was initially dissolved in water or in 10% methyl sulfoxide (DMSO)/water to make a stock solution of 10 mg/ml. The stock solution was added to 15 ml of freshly harvested rat whole blood and incubated at 37° C. […] The solvent(s) was(were) removed by evaporation. The resulting residue was analyzed by HPLC.
The reader will find reported half life in RWB values listed item by item below.

Worked set:
Molecule	half life in RWB
Cc1cc(O)cc(C)c1C[C@H](N)C(=O)N1Cc2ccccc2C[C@H]1C(=O)NCC(O)Cc1ccccc1.O=C(O)C(F)(F)F (stereo partly shown) [compound #4A]	> 2.1 h
Cc1cc(O)cc(C)c1CC(N)C(=O)N1Cc2ccccc2C[C@H]1C(=O)NCCCc1ccccc1.O=C(O)C(F)(F)F (stereo partly shown)	> 24 h
Cc1cc(O)cc(C)c1CC(N)C(=O)N1Cc2ccccc2CC1C(=O)NCCCc1ccccc1.O=C(O)C(F)(F)F (stereo not shown)	> 20 h

Lab note: next molecule to report on.
Param item = Cc1cc(O)cc(C)c1C[C@H](N)C(=O)N1Cc2ccccc2C[C@H]1C(=O)NCC(O)Cc1ccccc1.O=C(O)C(F)(F)F (stereo partly shown) [4B] ; retrieve measured half life in RWB.
> 5.32 h

* * *

# Measurement target: μ receptors (Rattus norvegicus)
# Construct: the brains minus cerebellum were removed and place in ice-cold saline solution and then homogenized; from tissue; host or cells: rat brain minus cerebellum, membrane homogenate
# Assay method text: Radioligand binding assay, μ receptor, (3H)-DAMGO, rat brain membranes
# Measurement setup: Ki from IC50 by Cheng and Prusoff, listed as #3
Readout: pKi
To interpret pKi, take it as minus log10 of a concentration measured in moles per litre.

Param item = Cc1cc(O)cc(C)c1CC(NC(=N)N)C(=O)N1Cc2ccccc2C[C@H]1C(=O)NC[C@H](O)Cc1ccccc1 (stereo partly shown) ; retrieve measured pKi.
8.69

* * *

# Measurement target: κ receptor (Rattus norvegicus, UniProt P34975)
# Construct: from tissue
# Sequence (P34975 whole entry): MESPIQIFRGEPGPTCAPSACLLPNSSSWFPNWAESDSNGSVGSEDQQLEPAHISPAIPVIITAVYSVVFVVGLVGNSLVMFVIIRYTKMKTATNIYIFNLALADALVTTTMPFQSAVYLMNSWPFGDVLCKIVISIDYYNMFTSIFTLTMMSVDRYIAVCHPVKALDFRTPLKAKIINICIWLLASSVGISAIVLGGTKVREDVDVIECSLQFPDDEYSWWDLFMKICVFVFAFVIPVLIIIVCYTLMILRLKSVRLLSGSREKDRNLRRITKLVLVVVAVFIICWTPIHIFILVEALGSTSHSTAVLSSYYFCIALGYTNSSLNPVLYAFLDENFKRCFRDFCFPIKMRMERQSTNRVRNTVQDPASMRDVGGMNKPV
# Assay method text: Radioligand binding assay, κ receptor (Table 1)
# Measurement setup: binding inhibition constant; listed as #3B
Readout: Ki (nM)
Write the number in nM without appending the unit.

Param item = Cc1cc(O)cc(C)c1CC(NC(=N)N)C(=O)N1Cc2ccccc2C[C@H]1C(=O)NC[C@H](O)Cc1ccccc1 (stereo partly shown) ; retrieve measured Ki.
164

* * *

# Test system: kidney brush border protease (KBBP)
# Assay method text: In vitro stability in kidney brush border protease (KBBP) at 37° C.
# Assay type: in vitro ADME
# Measurement setup: PBS pH 7.4, 37° C., up to 1440 minutes

Compound	Metabolites in KBBP
Cc1cc(O)cc(C)c1CC(N)C(=O)N1Cc2ccccc2C[C@H]1C(=O)NCCCc1ccccc1.O=C(O)C(F)(F)F (stereo partly shown) [compound #5A]	none detected
Cc1cc(O)cc(C)c1C[C@H](N)C(=O)N1Cc2ccccc2C[C@H]1C(=O)NCC(O)Cc1ccccc1.O=C(O)C(F)(F)F (stereo partly shown) [compound #4A]	1 detected after
Cc1cc(O)cc(C)c1CC(N)C(=O)N1Cc2ccccc2CC1C(=O)NCCCc1ccccc1.O=C(O)C(F)(F)F (stereo not shown) [compound #5B]	none detected
Cc1cc(O)cc(C)c1C[C@H](N)C(=O)N1Cc2ccccc2C[C@H]1C(=O)NCC(O)Cc1ccccc1.O=C(O)C(F)(F)F (stereo partly shown) [4B]	none detected
